# Assay Target: Neurogenic locus notch homolog protein 2 (Homo sapiens)
# Experiment Notes: Notch2 binders on small-molecule microarrays, primary screen, biochemical, small-molecule microarray, 635 nm fluorescence, stem cell growth factors (AID 1073)
# Condition Description: Notch2 binding, higher = more signal
Property Label: composite z-score
Reply briefly: the number, and no unit.

Below: 5 compounds and their reported composite z-score.
The reported composite z-score of the compound COC(=O)CC=C[C@@H](C)[C@@H](C=NO[C@H](C)c1cn([C@H](CO)Cc2ccccc2)nn1)NS(=O)(=O)c1ccc(C)cc1 was -0.303

The reported composite z-score of the compound CO[C@H]1COC(=O)CCC[C@@H](C)[C@H](OC)COC(=O)[C@@H](C)NC(=O)CC=C[C@@H]1C was -0.314

The reported composite z-score of the compound CCc1cc2c(nc1CC)CCN(CCC(C)=NO[C@H](C)c1cn([C@H](CO)Cc3ccccc3)nn1)C2 was -0.0913

The reported composite z-score of the compound CCOC(=O)NN=C1C[C@@H](O)[C@@H](O)[C@@H]2[C@@H]3C(=O)N(c4ccc(F)cc4F)C(=O)[C@@H]3CC[C@@H]12 was 0.493

The reported composite z-score of the compound CCOC(=O)NN=C1C[C@@H](O)[C@@H](O)[C@@H]2[C@@H]3C(=O)N(C(C)(C)C)C(=O)[C@@H]3CC[C@H]12 was 0.444

Now for a further compound.
The reported composite z-score of the compound O=C1C[C@@H](O)[C@@H](O)[C@@H]2[C@@H]3C(=O)N(c4cccc(Oc5ccccc5)c4)C(=O)[C@@H]3CC[C@H]12 was 0.484
